Tested on: HeLa Kyoto cells
assay.conditions: human
Counter-ions that a name gives are not always drawn.
endpoint.name: TC50 SFV (7h) (mM)
// units = mM; emit number, no label

Report its TC50 SFV (7h) with HeLa Kyoto cells as the test system: O=C1c2c(O)ccc(O)c2C(=O)c2c(NCCNCCO)ccc(NCCNCCO)c21 [Mitoxantrone, Mitoxantrone dihydrochloride] 43.2

Report its TC50 SFV (7h) with HeLa Kyoto cells as the test system: CCN(CC)CCOc1ccc(C(=C(Cl)c2ccccc2)c2ccccc2)cc1 [Clomiphene, Clomiphene citrate (Z,E)] 27.4

Report its TC50 SFV (7h) with HeLa Kyoto cells as the test system: CCCCN(CCCC)CCC(O)c1cc2c(Cl)cc(Cl)cc2c2cc(C(F)(F)F)ccc12 (stereo not drawn) [Halofantrine, Halofantrine hydrochloride] 290.4

Report its TC50 SFV (7h) with HeLa Kyoto cells as the test system: CN1CCN(CCCN2c3ccccc3Sc3ccc(Cl)cc32)CC1 [Prochloperazine, Prochlorperazine dimaleate] 22.7

Report its TC50 SFV (7h) with HeLa Kyoto cells as the test system: CC(C)COCC(CN(Cc1ccccc1)c1ccccc1)N1CCCC1 (stereo not drawn) [Bepridil, Bepridil hydrochloride] 34.9

Report its TC50 SFV (7h) with HeLa Kyoto cells as the test system: CNc1ccc2oc(C[C@H]3O[C@@]4(CC[C@H]3C)O[C@H]([C@H](C)C(=O)c3ccc[nH]3)[C@H](C)C[C@H]4C)nc2c1C(=O)O [Calcimycin] 4.1
